test system: biotinyl-Val-oxazolone; assay: self-aminoacylation, catalytic enhancement (BVO) (fold over background); higher = more active; k-Seq, kA / k0A0; sequences stand for … in GGGAAUGGAUCCACAUCUACGAAUUC…UUCACUGCAGACUUGACGAAGCUG
Fewer inactive variants are shown than the library holds.
test_readout: self-aminoacylation
One number for each entry.

Some sequences with recorded self-aminoacylation:
[
  {
    "sequence_content": "AAGUUGGCUAAUAGUUGCAAG [Fam3.1 aminoacylation ribozyme variant]",
    "test_readout": "self-aminoacylation",
    "val": 1.29
  },
  {
    "sequence_content": "CUACUUCAAAGAAUAGGUCUG [Fam1A.1 aminoacylation ribozyme variant]",
    "test_readout": "self-aminoacylation",
    "val": 0.746
  },
  {
    "sequence_content": "UUACUUCAAACAAUCGGUGUG [Fam1A.1 aminoacylation ribozyme variant]",
    "test_readout": "self-aminoacylation",
    "val": 1.46
  }
]

// input: 2 sequences below; output: self-aminoacylation for each
1. AGGUUUGCUAAUAGUCCCAAG [Fam3.1 aminoacylation ribozyme variant]
2. AUUACCCUGGUCAUCCAGUGG [Fam2.1 aminoacylation ribozyme variant]

1. 0.872
2. 1.3

// input: 2 sequences below; output: self-aminoacylation for each
1. CUGCUUCAAACAAGCGGUCUG [Fam1A.1 aminoacylation ribozyme variant]
2. CUACUUCAUACAAUCGGUCCG [Fam1A.1 aminoacylation ribozyme variant]

1: 0.731; 2: 0.653

// input: 8 sequences below; output: self-aminoacylation for each
1. AUAACCCUGGUUAUCGAGUGA [Fam2.1 aminoacylation ribozyme variant]
2. CUACAUGAAACAAUCGGUCUG [Fam1A.1 aminoacylation ribozyme variant]
3. AUUACCGUGGUCUUCGAGUGA [Fam2.1 aminoacylation ribozyme variant]
4. AUUACCCUAGUCAUCGAGUUA [Fam2.1 aminoacylation ribozyme variant]
5. ACUCACCUAGGUCAUCCGGUG [Fam2.2 aminoacylation ribozyme variant]
6. AUUCACCCAGGUCAUCCGGUG [Fam2.2 aminoacylation ribozyme variant]
7. AUACACCCAGGUCAUCGGGUG [Fam2.2 aminoacylation ribozyme variant]
8. CCACACUUCAAUCAAUCGUUC [Fam1B.1 aminoacylation ribozyme variant]

1. 3.44
2. 0.803
3. 3.21
4. 1.17
5. 5.7
6. 6.29
7. 3.3
8. 0.607

###

system: biotinyl-Phe-oxazolone; assay: self-aminoacylation, catalytic enhancement (BFO) (fold over background); higher = more active; k-Seq, kA / k0A0; sequences stand for … in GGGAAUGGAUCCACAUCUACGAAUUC…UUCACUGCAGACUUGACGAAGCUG
This sample holds only a part of the variants without activity.
Outcome: Criterion met for self-aminoacylation of at least 1; Criterion not met for anything lower.

[
  {
    "sequence_content": "AUUCACCUGGGUCACCGGGUG [Fam2.2 aminoacylation ribozyme variant]",
    "assigned_category": "Criterion met"
  },
  {
    "sequence_content": "AUUCCCCUGGUCAUCGCGUGA [Fam2.1 aminoacylation ribozyme variant]",
    "assigned_category": "Criterion met"
  },
  {
    "sequence_content": "AUUACCGUGGUCAUCGAGUUA [Fam2.1 aminoacylation ribozyme variant]",
    "assigned_category": "Criterion not met"
  },
  {
    "sequence_content": "GAGUUUGCUAAGAGUCGCAAG [Fam3.1 aminoacylation ribozyme variant]",
    "assigned_category": "Criterion met"
  }
]

Shift focus to the following entry.
Determine whether measured self-aminoacylation meets or exceeds 1 for CCAGAGUUCAAGCAAUCGGUC [Fam1B.1 aminoacylation ribozyme variant] Criterion met
